// data source = patent US12297186B2

run.description: Metabolic stability assay, human microsomes
Assay type: in vitro ADME
condition.context: 60 min
Listed next: entries and their corresponding % remanent (sampling time 60 min).
attribute.measured: % remanent (sampling time 60 min) (%)

INSERT INTO measurements (compound_string, attribute_measured, assay_result) VALUES
  ('CCc1ccccc1CNC(=O)Cn1cc(-c2ccnc3ccccc23)c(-c2cccc(C)n2)n1', '% remanent (sampling time 60 min)', 0.53),
  ('Cc1cccc(-c2nn(CC(=O)NCc3c(C)cccc3C)cc2-c2ccnc3ccccc23)n1', '% remanent (sampling time 60 min)', 0.05),
  ('Cc1cccc(-c2nn(CC(=O)NCc3ccccc3Cl)cc2-c2ccnc3ccccc23)n1', '% remanent (sampling time 60 min)', 0.03),
  ('Cc1cccc(-c2nn(CC(=O)NCc3c(F)cccc3F)cc2-c2ccnc3ccccc23)n1', '% remanent (sampling time 60 min)', 0.05),
  ('Cc1ccc(CNC(=O)Cn2cc(-c3ccnc4ccccc34)c(-c3cccc(C)n3)n2)cc1', '% remanent (sampling time 60 min)', 0.01);

====

molecules and their reported AUC(0-t)
run.description: Plasma pharmacokinetic assay, single oral administration
Assay type: in vivo, male Sprague Dawley rats
condition.context: male, Sprague-Dawley, po; rat, P.O., 5 mg/kg, plasma
attribute.measured: AUC(0-t) (ng·h/mL)

INSERT INTO assay_data (compound_string, attribute_measured, assay_result) VALUES
  ('Cc1cccc(-c2nn(CC(=O)NCc3ccccc3)cc2-c2ccnc3ccccc23)n1', 'AUC(0-t)', 27),
  ('Cc1cccc(-c2nn(CC(=O)NCc3ccccc3C)cc2-c2ccnc3ccccc23)n1', 'AUC(0-t)', 35.1),
  ('Cc1cccc(-c2nn(CC(=O)NCc3ccccc3Cl)cc2-c2ccnc3ccccc23)n1', 'AUC(0-t)', 13.7);

====

run.description: Metabolic stability assay, rat microsomes
Type: in vitro ADME
condition.context: 60 min
Given measured % remanent (sampling time 60 min), output true if it is greater than or equal to 0.08% and false if not.

INSERT INTO measurements (compound, class_name) VALUES
  ('Cc1cccc(-c2nn(CC(=O)NCc3ccccc3Cl)cc2-c2ccnc3ccccc23)n1 [Example 22]', 'true'),
  ('CCc1ccccc1CNC(=O)Cn1cc(-c2ccnc3ccccc23)c(-c2cccc(C)n2)n1 [Example 27]', 'true'),
  ('Cc1cccc(-c2nn(CC(=O)NCc3c(F)cccc3F)cc2-c2ccnc3ccccc23)n1 [Example 24]', 'false'),
  ('Cc1ccc(CNC(=O)Cn2cc(-c3ccnc4ccccc34)c(-c3cccc(C)n3)n2)cc1 [Example 20]', 'false');

====

target.under.test: TGF-beta kinase (ALK-5) (Homo sapiens (Human), UniProt P36897)
Sequence (P36897 34-503): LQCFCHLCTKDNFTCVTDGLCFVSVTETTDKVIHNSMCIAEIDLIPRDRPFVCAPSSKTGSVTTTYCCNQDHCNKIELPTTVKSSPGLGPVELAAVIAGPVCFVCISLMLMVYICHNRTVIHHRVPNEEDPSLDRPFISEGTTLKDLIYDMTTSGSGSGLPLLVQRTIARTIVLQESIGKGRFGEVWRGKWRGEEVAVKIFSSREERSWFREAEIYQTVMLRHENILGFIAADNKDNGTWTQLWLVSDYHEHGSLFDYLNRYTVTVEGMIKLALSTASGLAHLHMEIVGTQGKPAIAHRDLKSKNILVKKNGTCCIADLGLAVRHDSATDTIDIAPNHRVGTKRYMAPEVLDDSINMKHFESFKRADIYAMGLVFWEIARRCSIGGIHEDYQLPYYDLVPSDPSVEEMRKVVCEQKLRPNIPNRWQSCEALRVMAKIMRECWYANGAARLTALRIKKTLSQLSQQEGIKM
run.description: Determination of the intracellular TGF-beta kinase activity (ALK-5), p-SMAD3 AlphaLISA in A549 cells
Type: cell-based
condition.context: A549 cell line, TGF-β2 activated, p-SMAD3; read-out: IC50 range
IC50 reference
attribute.measured: IC50

INSERT INTO results (compound_string, attribute_measured, assay_result) VALUES
  ('Cc1ccc(CNC(=O)Cn2cc(-c3ccnc4ccccc34)c(-c3cccc(C)n3)n2)cc1', 'IC50', '< 0.1 µM'),
  ('Cc1cccc(-c2nn(CC(=O)NCc3ccccc3)cc2-c2ccnc3ccccc23)n1', 'IC50', '< 0.1 µM'),
  ('Cc1cccc(-c2nn(CC(=O)NCc3ccccc3Cl)cc2-c2ccnc3ccccc23)n1', 'IC50', '< 0.1 µM'),
  ('CCc1ccccc1CNC(=O)Cn1cc(-c2ccnc3ccccc23)c(-c2cccc(C)n2)n1', 'IC50', '< 0.1 µM'),
  ('O=C(Cn1cc(-c2ccnc3ccccc23)c(-c2ccccn2)n1)NCc1ccccc1', 'IC50', '0.1 to 0.5 µM'),
  ('CCc1cccc(-c2nn(CC(=O)NCc3ccccc3C)cc2-c2ccnc3ccccc23)n1', 'IC50', '0.1 to 0.5 µM'),
  ('Cc1cccc(-c2nn(CC(=O)NCc3c(Cl)cccc3Cl)cc2-c2ccnc3ccccc23)n1', 'IC50', '0.1 to 0.5 µM'),
  ('Cc1cccc(-c2nn(CC(=O)NCc3c(F)cccc3F)cc2-c2ccnc3ccccc23)n1', 'IC50', '< 0.1 µM'),
  ('Cc1cccc(-c2nn(CC(=O)NCc3ccccc3C)cc2-c2ccnc3ccccc23)n1', 'IC50', '0.1 to 0.5 µM'),
  ('Cc1cccc(-c2nn(CC(=O)NCc3c(C)cccc3C)cc2-c2ccnc3ccccc23)n1', 'IC50', '0.1 to 0.5 µM');

====

target.under.test: TGF-beta kinase (ALK-5) (Homo sapiens (Human))
run.description: Determination of the intracellular TGF-beta kinase activity (ALK-5), p-SMAD3 AlphaLISA in A549 cells
Type: cell-based
condition.context: A549 cell line; read-out: IC50 intracellular TGF-beta kinase activity (ALK-5)
attribute.measured: IC50

INSERT INTO results (compound_string, assay_result) VALUES
  ('Cc1cccc(-c2nn(CC(=O)O)cc2-c2ccnc3ccccc23)n1', '> 5 µM');

====

Measured IC50 of individual entries
target.under.test: Human TGFβR-1 kinase (Homo sapiens (Human))
Sequence (P36897 34-503): as above
run.description: In vitro enzyme assay: inhibition of TGFβR-1 kinase activity (ADP-Glo)
Assay type: biochemical
condition.context: TGFβR-1 kinase, 50 μM ATP; read-out: IC50 range
Where a name gives a salt, the structure may show the parent alone.
attribute.measured: IC50

INSERT INTO assay_data (compound, assay_result) VALUES
  ('CCc1cccc(-c2nn(CC(=O)NCc3ccccc3)cc2-c2ccnc3ccccc23)n1', '< 100 nM'),
  ('O=C(Cn1cc(-c2ccnc3ccccc23)c(-c2ccccn2)n1)NCc1cccc(Cl)c1', '100 to 800 nM'),
  ('Cc1cccc(CNC(=O)Cn2cc(-c3ccnc4ccccc34)c(-c3ccccn3)n2)c1', '100 to 800 nM'),
  ('Cc1ccccc1CNC(=O)Cn1cc(-c2ccnc3ccccc23)c(-c2ccccn2)n1', '100 to 800 nM'),
  ('Cc1ccc(CNC(=O)Cn2cc(-c3ccnc4ccccc34)c(-c3cccc(C)n3)n2)cc1', '< 100 nM'),
  ('N#Cc1cccc(CNC(=O)Cn2cc(-c3ccnc4ccccc34)c(-c3ccccn3)n2)c1', '100 to 800 nM'),
  ('Cc1cccc(-c2nn(CC(=O)NCc3c(C)cccc3C)cc2-c2ccnc3ccccc23)n1', '< 100 nM'),
  ('Cc1cccc(-c2nn(CC(=O)NCc3c(F)cccc3F)cc2-c2ccnc3ccccc23)n1', '< 100 nM'),
  ('O=C(Cn1cc(-c2ccnc3ccccc23)c(-c2ccccn2)n1)NCc1ccccc1F', '100 to 800 nM'),
  ('CCc1ccccc1CNC(=O)Cn1cc(-c2ccnc3ccccc23)c(-c2cccc(C)n2)n1', '< 100 nM'),
  ('O=C(Cn1cc(-c2ccnc3ccccc23)c(-c2ccccn2)n1)NCc1ccc(C(=O)O)cc1 [Example 29, hydrochloride]', '100 to 800 nM'),
  ('CCc1cccc(-c2nn(CC(=O)NCc3ccccc3C)cc2-c2ccnc3ccccc23)n1', '< 100 nM'),
  ('O=C(Cn1cc(-c2ccnc3ccccc23)c(-c2ccccn2)n1)NCc1ccc(Cl)cc1', '100 to 800 nM'),
  ('O=C(Cn1cc(-c2ccnc3ccccc23)c(-c2ccccn2)n1)NCc1cccc(F)c1', '100 to 800 nM'),
  ('Cc1cccc(C)c1CNC(=O)Cn1cc(-c2ccnc3ccccc23)c(-c2ccccn2)n1', '< 100 nM'),
  ('O=C(Cn1cc(-c2ccnc3ccccc23)c(-c2ccccn2)n1)NCc1ccccc1', '< 100 nM'),
  ('O=C(Cn1cc(-c2ccnc3ccccc23)c(-c2ccccn2)n1)NCc1ccc(Br)cc1', '100 to 800 nM'),
  ('Cc1cccc(-c2nn(CC(=O)NCc3ccccc3)cc2-c2ccnc3ccccc23)n1', '< 100 nM');

====

run.description: Plasma pharmacokinetic assay, single oral administration
Assay type: in vivo, male Sprague Dawley rats
condition.context: male, Sprague-Dawley, po; rat, P.O., 5 mg/kg, plasma
attribute.measured: Cmax

INSERT INTO results (compound_string, attribute_measured, assay_result) VALUES
  ('Cc1cccc(-c2nn(CC(=O)NCc3ccccc3C)cc2-c2ccnc3ccccc23)n1', 'Cmax', '75.8 ng/mL'),
  ('Cc1cccc(-c2nn(CC(=O)NCc3ccccc3Cl)cc2-c2ccnc3ccccc23)n1', 'Cmax', '20 ng/mL'),
  ('Cc1cccc(-c2nn(CC(=O)NCc3ccccc3)cc2-c2ccnc3ccccc23)n1', 'Cmax', '62.8 ng/mL');

====

target.under.test: UniProt P36897
run.description: In vitro enzyme assay: inhibition of TGFβR-1 kinase activity (ADP-Glo)
Format: biochemical
condition.context: TGFβR-1 kinase, 50 μM ATP; read-out: IC50 range
pIC50: −log10 of the molar value.
attribute.measured: pIC50

INSERT INTO measurements (molecule, assay_result) VALUES
  ('O=C(Cn1cc(-c2ccnc3ccccc23)c(-c2ccccn2)n1)NCc1ccc(F)cc1 [Example 2]', '6.10 to 7.00'),
  ('Cc1cccc(-c2nn(CC(=O)NCc3ccccc3Cl)cc2-c2ccnc3ccccc23)n1 [Example 22]', '> 7.00'),
  ('Cc1cccc(-c2nn(CC(=O)NCc3ccccc3C)cc2-c2ccnc3ccccc23)n1 [Example 15]', '> 7.00'),
  ('O=C(Cn1cc(-c2ccnc3ccccc23)c(-c2ccccn2)n1)NCc1c(F)cccc1F [Example 23]', '6.10 to 7.00'),
  ('Cc1ccc(CNC(=O)Cn2cc(-c3ccnc4ccccc34)c(-c3ccccn3)n2)cc1 [Example 7]', '6.10 to 7.00'),
  ('Cc1cccc(-c2nn(CC(=O)NCc3ccccc3F)cc2-c2ccnc3ccccc23)n1 [Example 17]', '6.10 to 7.00'),
  ('Cc1cccc(-c2nn(CC(=O)NCc3c(Cl)cccc3Cl)cc2-c2ccnc3ccccc23)n1 [Example 28]', '> 7.00'),
  ('O=C(Cn1cc(-c2ccnc3ccccc23)c(-c2ccccn2)n1)NCc1ccccc1Cl [Example 21]', '6.10 to 7.00');
